# system.name: hERG (KCNH2) (Homo sapiens)
# procedure.details: Inhibition of human ERG expressed in HEK293 cells assessed as decrease in channel current at 30 uM after 3 mins at -80 mV holding potential by automated patch-clamp electrophysiology assay
# Type: cell-based
# test.conditions: HEK293 cells that express hERG
quantity.name: inhibition at 0.05 h, 30 µM (%)
Dear colleague, please return just the value in %, with no unit written.

Guide cases for inhibition at 0.05 h, 30 µM, answers given:
[[record]]
molecule = "CCC(=O)O[C@@H]1[C@@H]2[C@@H](OC(C)=O)[C@@]34CO[C@@](C)([C@H](OC(C)=O)[C@@]2(OC(C)=O)C[C@H]1C)[C@@H]3[C@@H]1[C@@H](C[C@]1(C)OC(C)=O)[C@@H](OC(=O)C(C)C)C4=O"
system_name = "hERG (KCNH2) (Homo sapiens)"
observed = 33

[[record]]
molecule = "CCC(C)C(=O)O[C@H]1C(=O)[C@@]23CO[C@@](C)([C@H](OC(C)=O)[C@@]4(OC(C)=O)C[C@H](C)[C@H](OC(=O)c5cccnc5)[C@@H]4[C@H]2OC(C)=O)[C@@H]3[C@@H]2[C@H]1C[C@]2(C)OC(C)=O (some centres undefined)"
system_name = "hERG (KCNH2) (Homo sapiens)"
observed = 25

[[record]]
molecule = "CCC(=O)O[C@@H]1[C@@H]2[C@@H](OC(C)=O)[C@@]34CO[C@@](C)([C@H](OC(C)=O)[C@@]2(O)C[C@@H]1C)[C@@H]3[C@@H]1[C@@H](C[C@]1(C)OC(C)=O)[C@@H](OC(=O)c1ccccc1)C4=O"
system_name = "hERG (KCNH2) (Homo sapiens)"
observed = 45


Request: I would be grateful if you could share the reported inhibition at 0.05 h, 30 µM for CC(=O)O[C@@H]1[C@H]2[C@@H](OC(=O)C(C)C)[C@@](C)(OC(=O)c3cccnc3)C[C@]2(OC(C)=O)[C@@H](OC(C)=O)[C@]2(C)OC[C@]13C(=O)[C@H](OC(=O)C(C)C)[C@@H]1C[C@](C)(OC(C)=O)[C@@H]1[C@@H]23 .
Response: 30

###

# system.name: hERG (KCNH2) (Homo sapiens)
# procedure.details: Inhibition of human ERG expressed in HEK293 cells assessed as decrease in channel current at 30 uM after 3 mins at -80 mV holding potential by automated patch-clamp electrophysiology assay
# Type: cell-based
# test.conditions: HEK293 cells that express hERG
We begin with a simple list: items and their reported inhibition at 0.05 h, 30 µM.
Field format: number, assumed %, no unit text.

[[record]]
compound = "CCC(C)C(=O)O[C@H]1C(=O)[C@@]23CO[C@@](C)([C@H](OC(C)=O)[C@@]4(OC(C)=O)C[C@](C)(OC(=O)c5ccccc5)[C@H](OC(=O)C(C)C)[C@@H]4[C@H]2OC(C)=O)[C@@H]3[C@@H]2[C@H]1C[C@]2(C)OC(C)=O (some centres undefined)"
quantity_name = "inhibition at 0.05 h, 30 µM"
observed = 40

[[record]]
compound = "CCC(C)C(=O)O[C@H]1C(=O)[C@@]23CO[C@@](C)([C@H](OC(C)=O)[C@@]4(OC(C)=O)C[C@](C)(OC(=O)c5cccnc5)[C@H](OC(=O)C(C)C)[C@@H]4[C@H]2OC(C)=O)[C@@H]3[C@@H]2[C@H]1C[C@]2(C)OC(C)=O (some centres undefined)"
quantity_name = "inhibition at 0.05 h, 30 µM"
observed = 82

[[record]]
compound = "CCC(=O)O[C@@H]1[C@@H]2[C@@H](OC(C)=O)[C@@]34CO[C@@](C)([C@H](OC(C)=O)[C@@]2(OC(C)=O)C[C@]1(C)OC(=O)c1cccnc1)[C@@H]3[C@@H]1[C@@H](C[C@]1(C)OC(C)=O)[C@@H](OC(=O)C(C)C)C4=O"
quantity_name = "inhibition at 0.05 h, 30 µM"
observed = 42


Request: I have this compound here, CCC(=O)O[C@@H]1[C@@H]2[C@@H](OC(C)=O)[C@@]34CO[C@@](C)([C@H](OC(C)=O)[C@@]2(OC(C)=O)C[C@]1(C)OC(=O)c1ccccc1)[C@@H]3[C@@H]1[C@@H](C[C@]1(C)OC(C)=O)[C@@H](OC(=O)C(C)CC)C4=O (some centres undefined) , and I need its recorded inhibition at 0.05 h, 30 µM.
Response: 52

###

# system.name: hERG (KCNH2) (Homo sapiens, UniProt Q12809)
# Sequence (Q12809 whole entry): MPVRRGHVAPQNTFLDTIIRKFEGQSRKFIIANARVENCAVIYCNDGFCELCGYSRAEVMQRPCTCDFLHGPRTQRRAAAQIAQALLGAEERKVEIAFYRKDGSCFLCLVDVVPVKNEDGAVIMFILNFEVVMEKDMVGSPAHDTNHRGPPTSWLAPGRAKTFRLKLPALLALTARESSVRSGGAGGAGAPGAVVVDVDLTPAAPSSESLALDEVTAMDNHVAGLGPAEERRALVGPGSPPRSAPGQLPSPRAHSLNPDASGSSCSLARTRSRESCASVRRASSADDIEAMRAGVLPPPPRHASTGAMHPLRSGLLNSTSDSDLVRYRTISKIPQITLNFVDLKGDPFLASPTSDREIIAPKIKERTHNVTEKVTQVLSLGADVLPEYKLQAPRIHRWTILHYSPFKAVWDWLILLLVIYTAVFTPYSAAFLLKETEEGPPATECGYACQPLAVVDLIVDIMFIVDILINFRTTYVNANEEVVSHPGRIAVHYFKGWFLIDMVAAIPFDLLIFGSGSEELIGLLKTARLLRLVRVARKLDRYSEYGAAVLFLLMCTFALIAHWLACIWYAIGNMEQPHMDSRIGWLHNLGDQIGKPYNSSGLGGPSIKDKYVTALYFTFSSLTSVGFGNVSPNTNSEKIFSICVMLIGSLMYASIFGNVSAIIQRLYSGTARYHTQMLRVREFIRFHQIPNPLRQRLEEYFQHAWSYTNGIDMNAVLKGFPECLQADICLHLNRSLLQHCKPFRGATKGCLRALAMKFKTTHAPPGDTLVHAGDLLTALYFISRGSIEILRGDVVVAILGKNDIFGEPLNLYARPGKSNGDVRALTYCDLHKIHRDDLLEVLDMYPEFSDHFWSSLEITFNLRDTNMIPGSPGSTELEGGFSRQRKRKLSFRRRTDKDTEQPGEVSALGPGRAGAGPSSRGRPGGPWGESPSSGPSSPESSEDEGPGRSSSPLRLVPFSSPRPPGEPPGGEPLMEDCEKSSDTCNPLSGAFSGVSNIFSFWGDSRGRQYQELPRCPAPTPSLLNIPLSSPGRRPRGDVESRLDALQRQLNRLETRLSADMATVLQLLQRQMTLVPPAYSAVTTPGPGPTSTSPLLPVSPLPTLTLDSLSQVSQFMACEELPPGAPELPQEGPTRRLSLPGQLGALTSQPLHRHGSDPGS
# procedure.details: Inhibition of human ERG expressed in HEK293 cells assessed as decrease in channel current at 3 uM after 3 mins at -80 mV holding potential by automated patch-clamp electrophysiology assay
# Type: cell-based
# test.conditions: HEK293 cells that express hERG
Examples of compounds with documented inhibition at 0.05 h, 3 µM follow.
Respond numerically; units are % and should not be typed.

Study these solved cases before continuing.
[[record]]
compound = "CC(=O)O[C@@H]1[C@H]2[C@@H](OC(=O)C(C)C)[C@@H](C)C[C@]2(OC(C)=O)[C@@H](OC(C)=O)[C@]2(C)OC[C@]13C(=O)C=C[C@H](C(C)(C)OC(C)=O)[C@@H]23 [EUPHORBIAPROLIFERIN C]"
quantity_name = "inhibition at 0.05 h, 3 µM"
observed = 0

[[record]]
compound = "CC(=O)O[C@@H]1[C@H]2[C@@H](OC(=O)C(C)C)[C@@](C)(OC(=O)c3cccnc3)C[C@]2(OC(C)=O)[C@@H](OC(C)=O)[C@]2(C)OC[C@]13C(=O)[C@H](OC(=O)C(C)C)[C@@H]1C[C@](C)(OC(C)=O)[C@@H]1[C@@H]23"
quantity_name = "inhibition at 0.05 h, 3 µM"
observed = 8

[[record]]
compound = "CCC(=O)O[C@@H]1[C@@H]2[C@@H](OC(=O)c3ccccc3)[C@@]3(COC(=O)C(C)C)[C@H]4[C@H](C=C[C@H]3OC(C)=O)C(C)(C)O[C@]4(C)C(=O)[C@@]2(OC(C)=O)C[C@@H]1C"
quantity_name = "inhibition at 0.05 h, 3 µM"
observed = 11


Here's the next entry for you.
Request: Consider the compound shown here: CC(=O)O[C@@H]1[C@H]2[C@@H](OC(=O)C(C)C)[C@@](C)(OC(=O)c3ccccc3)C[C@]2(OC(C)=O)[C@@H](OC(C)=O)[C@]2(C)OC[C@]13C(=O)[C@H](OC(=O)C(C)C)[C@@H]1C[C@](C)(OC(C)=O)[C@@H]1[C@@H]23 What is its recorded inhibition at 0.05 h, 3 µM?
Response: 14

###

# system.name: hERG (KCNH2) (Homo sapiens, UniProt Q12809)
# procedure.details: Inhibition of human ERG expressed in HEK293 cells assessed as decrease in channel current at 10 uM after 3 mins at -80 mV holding potential by automated patch-clamp electrophysiology assay
# Format: cell-based
# test.conditions: HEK293 cells that express hERG
inhibition at 0.05 h, 10 µM values, listed per item
Expressed in %, but write only the number.

Recorded inhibition at 0.05 h, 10 µM, per entry:
[[record]]
compound = "CC(=O)O[C@@H]1[C@H]2[C@@H](OC(=O)C(C)C)[C@@](C)(OC(=O)c3ccccc3)C[C@]2(OC(C)=O)[C@@H](OC(C)=O)[C@]2(C)OC[C@]13C(=O)[C@H](OC(=O)C(C)C)[C@@H]1C[C@](C)(OC(C)=O)[C@@H]1[C@@H]23"
system_name = "hERG (KCNH2) (Homo sapiens, UniProt Q12809)"
unit_text = "%"
observed = 24

[[record]]
compound = "CCC(=O)O[C@@H]1[C@@H]2[C@@H](OC(C)=O)[C@@]34CO[C@@](C)([C@H](OC(C)=O)[C@@]2(OC(C)=O)C[C@]1(C)OC(=O)c1cccnc1)[C@@H]3[C@@H]1[C@@H](C[C@]1(C)OC(C)=O)[C@@H](OC(=O)C(C)C)C4=O"
system_name = "hERG (KCNH2) (Homo sapiens, UniProt Q12809)"
unit_text = "%"
observed = 22


Request: Item CC(=O)OC[C@@]12[C@H](OC(=O)c3ccccc3)[C@H]3[C@@H](OC(=O)C(C)C)[C@@H](C)C[C@]3(OC(C)=O)C(=O)[C@@]3(C)OC(C)(C)[C@@H](C=C[C@H]1OC(C)=O)[C@H]23 with hERG (KCNH2) (Homo sapiens, UniProt Q12809) - inhibition at 0.05 h, 10 µM?
Response: 24

###

Catalogue of molecules with associated inhibition
# system.name: Kir3.1/Kir3.4 (Homo sapiens) (UniProt P48549+P48544)
# procedure.details: Inhibition of GTPgammaS-induced activation of GIRK1/4 (unknown origin) expressed in HEK293 cells assessed as decrease in channel current at 1 uM after 2 mins at -40 mV holding potential by automated patch-clamp electrophysiology assay
# Assay type: cell-based
Please state the figure in %; there is no need to write the unit.

In the examples that follow, each entry is paired with its recorded inhibition.
[[record]]
molecule = "CC(=O)O[C@@H]1[C@H]2[C@@H](OC(=O)C(C)C)[C@@](C)(OC(=O)c3cccnc3)C[C@]2(OC(C)=O)[C@@H](OC(C)=O)[C@]2(C)OC[C@]13C(=O)[C@H](OC(=O)C(C)C)[C@@H]1C[C@](C)(OC(C)=O)[C@@H]1[C@@H]23"
system_name = "Kir3.1/Kir3.4 (Homo sapiens) (UniProt P48549+P48544)"
quantity_name = "inhibition"
observed = 8

[[record]]
molecule = "CC(=O)O[C@@H]1[C@H]2[C@@H](OC(=O)C(C)C)[C@@H](C)C[C@]2(OC(C)=O)[C@@H](OC(C)=O)[C@]2(C)OC[C@]13C(=O)C=C[C@H](C(C)(C)OC(C)=O)[C@@H]23"
system_name = "Kir3.1/Kir3.4 (Homo sapiens) (UniProt P48549+P48544)"
quantity_name = "inhibition"
observed = 34

[[record]]
molecule = "CC(=O)OC1O[C@@]2(C)[C@H](OC(=O)c3ccccc3)[C@@]3(OC(C)=O)C[C@H](C)[C@H](OC(=O)C(C)C)[C@@H]3[C@@H](OC(C)=O)[C@@]13[C@H](OC(=O)c1cccnc1)C[C@H]1[C@@H]([C@@H]23)C1(C)C (some centres undefined)"
system_name = "Kir3.1/Kir3.4 (Homo sapiens) (UniProt P48549+P48544)"
quantity_name = "inhibition"
observed = 18

[[record]]
molecule = "CCC(=O)O[C@@H]1[C@@H]2[C@@H](OC(C)=O)[C@@]34CO[C@@](C)([C@H](OC(C)=O)[C@@]2(OC(C)=O)C[C@H]1C)[C@@H]3[C@@H]1[C@@H](C[C@]1(C)OC(C)=O)[C@@H](OC(=O)C(C)C)C4=O"
system_name = "Kir3.1/Kir3.4 (Homo sapiens) (UniProt P48549+P48544)"
quantity_name = "inhibition"
observed = 30

[[record]]
molecule = "CCC(=O)O[C@@H]1[C@@H]2[C@@H](OC(C)=O)[C@@]34CO[C@@](C)([C@H](OC(C)=O)[C@@]2(OC(C)=O)C[C@]1(C)O)[C@@H]3[C@@H]1[C@@H](C[C@]1(C)OC(C)=O)[C@@H](OC(=O)C(C)CC)C4=O (some centres undefined)"
system_name = "Kir3.1/Kir3.4 (Homo sapiens) (UniProt P48549+P48544)"
quantity_name = "inhibition"
observed = 11

[[record]]
molecule = "CC(=O)O[C@@H]1C[C@H]2[C@@H]([C@@H]3[C@]1(COC(=O)c1cccnc1)[C@H](OC(=O)c1ccccc1)[C@H]1[C@@H](OC(=O)C(C)C)[C@@H](C)C[C@]1(O)C(=O)[C@@]3(C)OC(C)=O)C2(C)C"
system_name = "Kir3.1/Kir3.4 (Homo sapiens) (UniProt P48549+P48544)"
quantity_name = "inhibition"
observed = 28

[[record]]
molecule = "CCCCCC(=O)O[C@@H]1[C@@H]2[C@@H](O)[C@]34CC[C@H]5[C@@H]([C@H]3[C@@](C)(OC4)[C@H](OC(C)=O)[C@@]2(O)C[C@@H]1C)C5(C)C"
system_name = "Kir3.1/Kir3.4 (Homo sapiens) (UniProt P48549+P48544)"
quantity_name = "inhibition"
observed = 30

[[record]]
molecule = "CCC(C)C(=O)O[C@H]1C(=O)[C@@]23CO[C@@](C)([C@H](OC(C)=O)[C@@]4(OC(C)=O)C[C@](C)(O)[C@H](OC(=O)C(C)C)[C@@H]4[C@H]2OC(C)=O)[C@@H]3[C@@H]2[C@H]1C[C@]2(C)OC(C)=O (some centres undefined)"
system_name = "Kir3.1/Kir3.4 (Homo sapiens) (UniProt P48549+P48544)"
quantity_name = "inhibition"
observed = 14


Consider now this further molecule.
Request: Field request: inhibition | item: CCC(=O)O[C@@H]1[C@@H]2[C@@H](OC(C)=O)[C@@]34CO[C@@](C)([C@H](OC(C)=O)[C@@]2(OC(C)=O)C[C@@H]1C)[C@@H]3[C@@H](C(C)(C)OC(C)=O)C=CC4=O
Response: 24
